Assign IC50 to each entry below.
- test-system: SARS‐CoV‐2 Nsp15 (Severe acute respiratory syndrome coronavirus 2)
- test-name: biochemical
- Assay type: biochemical
- run-conditions: IC50 + L‐Cys (μM) (CI in μM)
Where a name gives a salt, the structure may show the parent alone.
Answers are plain numbers, in µM.

[
  {
    "molecule": "COc1cccc2c1C(=O)c1c(O)c3c(c(O)c1C2=O)C[C@@](O)(C(=O)CO)C[C@@H]3O[C@H]1C[C@H](N)[C@H](O)[C@H](C)O1",
    "observed": 2.3
  }
]

// batch mode: one IC50 value per listed entry
1. COc1cccc2c1C(=O)c1c(O)c3c(c(O)c1C2=O)C[C@@](O)(C(=O)CO)C[C@@H]3O[C@H]1C[C@H](N)[C@@H](O)[C@H](C)O1 [Epirubicin hydrochloride]
2. O=C1c2c(O)ccc(O)c2C(=O)c2c(NCCNCCO)ccc(NCCNCCO)c21 [Mitoxantrone hydrochloride]

1: 1.5; 2: 0.5

====

Provide the recorded IC50 for the entries that follow.
- test-system: SARS‐CoV‐2 Nsp15 (Severe acute respiratory syndrome coronavirus 2, UniProt P0DTD1)
- test-name: biochemical
- run-conditions: DTT buffer, 30 min pre-incubation; read-out: IC50
Numbers only, in µM.

[
  {
    "smiles-text": "Nc1c(/N=N/c2ccc(-c3ccc(/N=N/c4cc(S(=O)(=O)O)c5ccccc5c4N)cc3)cc2)cc(S(=O)(=O)O)c2ccccc12",
    "readout-label": "IC50",
    "value-units": "µM",
    "observed": 7.5
  }
]

Next item in the queue.
Give SARS‐CoV‐2 Nsp15 (Severe acute respiratory syndrome coronavirus 2, UniProt P0DTD1) IC50 for COc1cc2c(NC3CCN(C4CCCCC4)CC3)nc(N3CCCN(C(C)C)CC3)nc2cc1OCCCN1CCCCC1 1.36

====

- test-system: SARS‐CoV‐2 Nsp15 (Severe acute respiratory syndrome coronavirus 2, UniProt P0DTD1)
- test-name: biochemical
- run-conditions: primary screen, 10 µM (Table S1)
readout-label: PS Inhibition % 10 µM

Below: 4 molecules and their reported PS Inhibition % 10 µM.
[
  {
    "molecule": "Cc1[nH]c2ccc(F)cc2c1-c1nc2c3cccnc3c3ncccc3c2[nH]1 [APTO‐253]",
    "readout-label": "PS Inhibition % 10 µM",
    "observed": "61,11%"
  },
  {
    "molecule": "O=C1C(Cl)=C(NCCN2CCOCC2)C(=O)c2ncccc21 [NSC‐663284]",
    "readout-label": "PS Inhibition % 10 µM",
    "observed": "85,51%"
  },
  {
    "molecule": "COc1cccc(C=NCCN=Cc2cccc(OC)c2[O-])c1[O-].[Cl-].[Mn+3] [EUK 134]",
    "readout-label": "PS Inhibition % 10 µM",
    "observed": "70,85%"
  },
  {
    "molecule": "CC[N+](C)(CC)CCC[n+]1c(-c2ccccc2)c2cc(N)ccc2c2ccc(N)cc21.[I-].[I-] [Propidium‐iodide]",
    "readout-label": "PS Inhibition % 10 µM",
    "observed": "83,07%"
  }
]

Turning to the following molecule.
Requested field: PS Inhibition % 10 µM. Item: CN[C@H](CC(C)C)C(=O)N[C@H]1C(=O)N[C@@H](CC(N)=O)C(=O)N[C@H]2C(=O)N[C@H]3C(=O)N[C@H](C(=O)N[C@H](C(=O)O)c4cc(O)cc(O)c4-c4cc3ccc4O)[C@H](O[C@H]3C[C@](C)(N)[C@@H](O)[C@H](C)O3)c3ccc(c(Cl)c3)Oc3cc2cc(c3O[C@@H]2O[C@H](CO)[C@@H](O)[C@H](O)[C@H]2O[C@H]2C[C@](C)(NCc3ccc(-c4ccc(Cl)cc4)cc3)[C@@H](O)[C@H](C)O2)Oc2ccc(cc2Cl)[C@H]1O.O=P(O)(O)O.O=P(O)(O)O [Oritavancin (diphosphate)] 86,71%

====

- test-system: UniProt:P0DTD1
- test-name: biochemical
- Format: biochemical
- run-conditions: 1 mM L-cysteine buffer; confidence interval in brackets; read-out: IC50 + L‐Cys (μM) (CI in μM)
Structures can show the parent of a compound that is named as a salt.
readout-label: IC50 (µM)
Give bare numbers, in µM.

[
  {
    "molecule": "COc1cc2c(NC3CCN(C4CCCCC4)CC3)nc(N3CCCN(C(C)C)CC3)nc2cc1OCCCN1CCCCC1 [UNC0646]",
    "test-system": "UniProt:P0DTD1",
    "IC50 [µM]": 0.7
  },
  {
    "molecule": "CCCCCCCCN=c1ccn(CCCCCCCCCCn2ccc(=NCCCCCCCC)cc2)cc1 [Octenidine dihydrochloride]",
    "test-system": "UniProt:P0DTD1",
    "IC50 [µM]": 4.4
  },
  {
    "molecule": "NCCNc1ccc(NCCN)c2c1C(=O)c1ccncc1C2=O [Pixantrone (dimaleate)]",
    "test-system": "UniProt:P0DTD1",
    "IC50 [µM]": 4.4
  },
  {
    "molecule": "COc1cc2c(NC3CCN(C)CC3)nc(N3CCCN(C)CC3)nc2cc1OCCOCCN(C)C [UNC0321]",
    "test-system": "UniProt:P0DTD1",
    "IC50 [µM]": 3.2
  },
  {
    "molecule": "COc1cc2c(NC3CCN(C)CC3)nc(N3CCCN(C)CC3)nc2cc1OCCCN(C)C [UNC0224]",
    "test-system": "UniProt:P0DTD1",
    "IC50 [µM]": 4
  }
]

Fill in IC50 for each of the 2 molecules listed.
1. COc1cccc2c1C(=O)c1c(O)c3c(c(O)c1C2=O)C[C@@](O)(C(=O)CO)C[C@@H]3O[C@H]1C[C@H](N2CCO[C@H](OC)C2)[C@H](O)[C@H](C)O1 [Nemorubicin]
2. COc1cc2c(NC3CCN(C(C)C)CC3)nc(N3CCC(F)(F)CC3)nc2cc1OCCCN1CCCC1 [UNC0642]

[1.3, 3.3]

Each molecule below has a recorded value; state its IC50.
1. COc1cc2c(NC3CCN(CC4CCCCC4)CC3)nc(N3CCCN(C(C)C)CC3)nc2cc1OCCCN1CCCCC1 [UNC0631]
2. C/C(=N\NC(=N)N)c1cc(NC(=O)CCCCCCCCC(=O)Nc2cc(/C(C)=N/NC(=N)N)cc(/C(C)=N/NC(=N)N)c2)cc(/C(C)=N/NC(=N)N)c1 [Semapimod]

1: 2.5; 2: 1

====

- test-system: SARS‐CoV‐2 Nsp15 (Severe acute respiratory syndrome coronavirus 2)
- test-name: biochemical
- run-conditions: primary screen, 10 μM compound, 1 mM DTT buffer, normalized to 50 μM Congo red (100%) and DMSO (0%)
readout-label: PS inhibition % 10 μM (single point measurement) (%)
One number for each entry, in %.

Take a look at these entries with their results.
[
  {
    "compound": "CC[N+](C)(CC)CCC[n+]1c(-c2ccccc2)c2cc(N)ccc2c2ccc(N)cc21.[I-].[I-] [Propidium‐iodide]",
    "observed": 83.1
  },
  {
    "compound": "COc1cccc(C=NCCN=Cc2cccc(OC)c2[O-])c1[O-].[Cl-].[Mn+3]",
    "observed": 70.9
  },
  {
    "compound": "C/C(=N\\NC(=N)N)c1cc(NC(=O)CCCCCCCCC(=O)Nc2cc(/C(C)=N/NC(=N)N)cc(/C(C)=N/NC(=N)N)c2)cc(/C(C)=N/NC(=N)N)c1",
    "observed": 106.9
  }
]

Would you mind giving PS inhibition % 10 μM (single point measurement) for every compound in the list below?
1. CN[C@H](CC(C)C)C(=O)N[C@H]1C(=O)N[C@@H](CC(N)=O)C(=O)N[C@H]2C(=O)N[C@H]3C(=O)N[C@H](C(=O)N[C@H](C(=O)O)c4cc(O)cc(O)c4-c4cc3ccc4O)[C@H](O[C@H]3C[C@](C)(N)[C@@H](O)[C@H](C)O3)c3ccc(c(Cl)c3)Oc3cc2cc(c3O[C@@H]2O[C@H](CO)[C@@H](O)[C@H](O)[C@H]2O[C@H]2C[C@](C)(NCc3ccc(-c4ccc(Cl)cc4)cc3)[C@@H](O)[C@H](C)O2)Oc2ccc(cc2Cl)[C@H]1O.O=P(O)(O)O.O=P(O)(O)O [Oritavancin (diphosphate)]
2. O=C1C(Cl)=C(NCCN2CCOCC2)C(=O)c2ncccc21
3. Cc1[nH]c2ccc(F)cc2c1-c1nc2c3cccnc3c3ncccc3c2[nH]1

[86.7, 85.5, 61.1]

====

- test-system: SARS‐CoV‐2 Nsp15 (Severe acute respiratory syndrome coronavirus 2)
- test-name: biochemical
- Format: biochemical
- run-conditions: 10 µM, L-cysteine buffer
Exercise: state measured Inhibition % +L-Cys 10 µM for each of the compounds provided.

[
  {
    "compound": "COc1cccc(C=NCCN=Cc2cccc(OC)c2[O-])c1[O-].[Cl-].[Mn+3] [EUK 134]",
    "readout-label": "Inhibition % +L-Cys 10 µM",
    "observed": "16,41%"
  },
  {
    "compound": "CN[C@H](CC(C)C)C(=O)N[C@H]1C(=O)N[C@@H](CC(N)=O)C(=O)N[C@H]2C(=O)N[C@H]3C(=O)N[C@H](C(=O)N[C@H](C(=O)O)c4cc(O)cc(O)c4-c4cc3ccc4O)[C@H](O[C@H]3C[C@](C)(N)[C@@H](O)[C@H](C)O3)c3ccc(c(Cl)c3)Oc3cc2cc(c3O[C@@H]2O[C@H](CO)[C@@H](O)[C@H](O)[C@H]2O[C@H]2C[C@](C)(NCc3ccc(-c4ccc(Cl)cc4)cc3)[C@@H](O)[C@H](C)O2)Oc2ccc(cc2Cl)[C@H]1O.O=P(O)(O)O.O=P(O)(O)O [Oritavancin (diphosphate)]",
    "readout-label": "Inhibition % +L-Cys 10 µM",
    "observed": "91,07%"
  },
  {
    "compound": "O=C1C(Cl)=C(NCCN2CCOCC2)C(=O)c2ncccc21 [NSC‐663284]",
    "readout-label": "Inhibition % +L-Cys 10 µM",
    "observed": "53,53%"
  },
  {
    "compound": "CC[N+](C)(CC)CCC[n+]1c(-c2ccccc2)c2cc(N)ccc2c2ccc(N)cc21.[I-].[I-] [Propidium‐iodide]",
    "readout-label": "Inhibition % +L-Cys 10 µM",
    "observed": "68,98%"
  },
  {
    "compound": "C/C(=N\\NC(=N)N)c1cc(NC(=O)CCCCCCCCC(=O)Nc2cc(/C(C)=N/NC(=N)N)cc(/C(C)=N/NC(=N)N)c2)cc(/C(C)=N/NC(=N)N)c1 [Semapimod]",
    "readout-label": "Inhibition % +L-Cys 10 µM",
    "observed": "100,99%"
  }
]

Next:
Request the reported Inhibition % +L-Cys 10 µM associated with Cc1[nH]c2ccc(F)cc2c1-c1nc2c3cccnc3c3ncccc3c2[nH]1 [APTO‐253] 48,13%
